# TEST TARGET: MAP1LC3B Microtubule-associated proteins 1A/1B light chain (Homo sapiens)
# Construct: isoTOP-ABPP experiments performed in cell lysates (in vitro); endogenous in cells; host or cells: soluble proteome of human cancer cell lines (MDA-MB-231; Ramos and Jurkat also prepared)
# PROCEDURE DETAILS: competitive isoTOP-ABPP
# Format: binding
# APPLIED CONDITIONS: Q9GZQ8_K51; 50 uM, 231 sol, in vitro
PROPERTY: R value (DMSO/fragment) for probe 1 labeling
Numbers only.

Could I get R value (DMSO/fragment) for probe 1 labeling for every one of these entries?
1. Cn1cc(CC(=O)Oc2c(F)c(F)c(F)c(F)c2F)c2ccccc21
2. O=C(CCc1cn(-c2ccccc2)nc1-c1ccccc1)Oc1c(F)c(F)c(F)c(F)c1F
3. COc1cc(CCC(=O)Oc2c(F)c(F)c(F)c(F)c2F)cc(OC)c1OC
4. O=C(Oc1c(F)c(F)c(F)c(F)c1F)C(c1ccccc1)c1ccccc1 [fragment 20, Pentafluorophenyl 2,2-diphenylacetate]

Data returned:
1: 1.2; 2: 1.0; 3: 0.7; 4: 0.9

====

# TEST TARGET: ACBD3 Golgi resident protein GCP60 (Homo sapiens, UniProt Q9H3P7)
# Construct: isoTOP-ABPP experiments performed in cell lysates (in vitro); endogenous in cells; host or cells: soluble proteome of human cancer cell lines (MDA-MB-231; Ramos and Jurkat also prepared)
# Sequence (Q9H3P7 whole entry): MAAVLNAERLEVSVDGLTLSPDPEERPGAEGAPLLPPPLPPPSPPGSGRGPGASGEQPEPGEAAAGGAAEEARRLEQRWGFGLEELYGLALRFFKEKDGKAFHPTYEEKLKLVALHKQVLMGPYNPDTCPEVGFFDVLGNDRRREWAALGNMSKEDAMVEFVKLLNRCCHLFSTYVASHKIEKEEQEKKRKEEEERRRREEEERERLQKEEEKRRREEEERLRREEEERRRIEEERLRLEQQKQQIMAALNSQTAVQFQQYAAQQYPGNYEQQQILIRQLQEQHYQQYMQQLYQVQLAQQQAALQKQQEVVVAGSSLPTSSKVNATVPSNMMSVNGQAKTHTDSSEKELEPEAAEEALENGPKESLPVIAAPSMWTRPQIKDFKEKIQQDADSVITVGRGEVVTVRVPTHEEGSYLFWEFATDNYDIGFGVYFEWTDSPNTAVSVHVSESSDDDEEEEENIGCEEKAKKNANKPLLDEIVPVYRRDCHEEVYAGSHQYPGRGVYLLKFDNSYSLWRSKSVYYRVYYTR
# PROCEDURE DETAILS: competitive isoTOP-ABPP
# Type: binding
# APPLIED CONDITIONS: Q9H3P7_K117; 50 uM, 231 sol, in vitro
PROPERTY: R value (DMSO/fragment) for probe 1 labeling

Please review the entries below; each comes with its answer.
// sample `COc1cc(CCC(=O)Oc2c(F)c(F)c(F)c(F)c2F)cc(OC)c1OC` , its R value (DMSO/fragment) for probe 1 labeling was 1.2

// sample `O=C(Oc1c(F)c(F)c(F)c(F)c1F)c1cc(C(F)(F)F)cc(C(F)(F)F)c1` , its R value (DMSO/fragment) for probe 1 labeling was 0.9

// sample `Cn1cc(CC(=O)Oc2c(F)c(F)c(F)c(F)c2F)c2ccccc21` , its R value (DMSO/fragment) for probe 1 labeling was 1.2

// sample O=C(Oc1c(F)c(F)c(F)c(F)c1F)C(c1ccccc1)c1ccccc1 [fragment 20, Pentafluorophenyl 2,2-diphenylacetate] , its R value (DMSO/fragment) for probe 1 labeling was 1.2

Please examine the following record next.
// sample `O=C(CCc1cn(-c2ccccc2)nc1-c1ccccc1)Oc1c(F)c(F)c(F)c(F)c1F` , its R value (DMSO/fragment) for probe 1 labeling was 1.0

====

Provide the recorded R value (DMSO/fragment) for probe 1 labeling for the entries that follow.
# TEST TARGET: TRAP1 Heat shock protein 75 kDa, mitochondrial (Homo sapiens)
# Construct: isoTOP-ABPP experiments performed in cell lysates (in vitro); endogenous in cells; host or cells: soluble proteome of human cancer cell lines (MDA-MB-231, Ramos, Jurkat)
# Sequence (Q12931 60-704): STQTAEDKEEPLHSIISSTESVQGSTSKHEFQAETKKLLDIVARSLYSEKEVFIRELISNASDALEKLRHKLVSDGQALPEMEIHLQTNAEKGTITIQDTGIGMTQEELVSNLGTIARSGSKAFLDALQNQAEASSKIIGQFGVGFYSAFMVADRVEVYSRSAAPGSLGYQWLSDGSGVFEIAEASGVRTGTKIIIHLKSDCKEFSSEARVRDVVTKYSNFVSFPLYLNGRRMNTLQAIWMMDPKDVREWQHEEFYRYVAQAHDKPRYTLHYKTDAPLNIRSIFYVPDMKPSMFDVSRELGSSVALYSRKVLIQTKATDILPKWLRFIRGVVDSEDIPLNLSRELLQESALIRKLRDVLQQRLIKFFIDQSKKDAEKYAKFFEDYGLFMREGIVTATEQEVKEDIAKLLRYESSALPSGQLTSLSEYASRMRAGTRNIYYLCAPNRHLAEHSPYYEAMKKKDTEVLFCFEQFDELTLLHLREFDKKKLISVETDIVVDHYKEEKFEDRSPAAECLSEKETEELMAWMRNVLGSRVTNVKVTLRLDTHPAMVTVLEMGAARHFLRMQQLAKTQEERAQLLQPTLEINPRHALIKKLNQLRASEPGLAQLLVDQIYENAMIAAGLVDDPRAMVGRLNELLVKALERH
# PROCEDURE DETAILS: competitive isoTOP-ABPP
# Assay type: binding
# APPLIED CONDITIONS: Q12931_K699; 50 uM, 231 sol, in vitro
Numbers only.

Considering O=C(Oc1c(F)c(F)c(F)c(F)c1F)c1cc(C(F)(F)F)cc(C(F)(F)F)c1 [fragment 21] , its R value (DMSO/fragment) for probe 1 labeling with TRAP1 Heat shock protein 75 kDa, mitochondrial (Homo sapiens) was recorded as 0.9

Could I get R value (DMSO/fragment) for probe 1 labeling for every one of these entries?
1. O=C(CCc1cn(-c2ccccc2)nc1-c1ccccc1)Oc1c(F)c(F)c(F)c(F)c1F [fragment 19]
2. O=C(Oc1c(F)c(F)c(F)c(F)c1F)C(c1ccccc1)c1ccccc1 [fragment 20, Pentafluorophenyl 2,2-diphenylacetate]
3. Cn1cc(CC(=O)Oc2c(F)c(F)c(F)c(F)c2F)c2ccccc21 [fragment 22]
4. COc1cc(CCC(=O)Oc2c(F)c(F)c(F)c(F)c2F)cc(OC)c1OC [fragment 23]

Data returned:
1.2
1.0
1.1
1.0

====

Provide the recorded isoTOP-ABPP ratio (R) at liganded lysine P61978_K405 for the entries that follow.
# TEST TARGET: HNRNPK Heterogeneous nuclear ribonucleoprotein K (Homo sapiens)
# Construct: isoTOP-ABPP experiments performed in cell lysates (in vitro); endogenous in cells; host or cells: soluble proteome of human cancer cell lines (MDA-MB-231, Ramos, Jurkat)
# PROCEDURE DETAILS: competitive isoTOP-ABPP
# Assay type: binding
# APPLIED CONDITIONS: 50 uM, in vitro, sol, 231

// sample `CC(C)(C)OC(=O)NCCCC(=O)Oc1ccc([N+](=O)[O-])cc1[N+](=O)[O-]` , its isoTOP-ABPP ratio (R) at liganded lysine P61978_K405 was 1.0

// sample `O=C(Oc1ccc([N+](=O)[O-])cc1[N+](=O)[O-])c1ccccc1Nc1cccc(C(F)(F)F)c1` , its isoTOP-ABPP ratio (R) at liganded lysine P61978_K405 was 0.9

Could I get isoTOP-ABPP ratio (R) at liganded lysine P61978_K405 for every one of these entries?
1. O=C(Oc1ccc([N+](=O)[O-])cc1[N+](=O)[O-])c1ccc2ccccc2n1
2. O=C(Oc1ccc([N+](=O)[O-])cc1[N+](=O)[O-])c1ccc(-c2ccccc2)cc1
3. O=C(Oc1ccc([N+](=O)[O-])cc1[N+](=O)[O-])C1CCN(C(=O)OCc2ccccc2)CC1
4. CC(=O)Oc1ccc([N+](=O)[O-])cc1[N+](=O)[O-] [fragment 43, 2,4-Dinitrophenyl acetate]
5. O=C(Oc1ccc([N+](=O)[O-])cc1[N+](=O)[O-])c1ccc(Oc2ccccc2)cc1 [fragment 39, 2,4-Dinitrophenyl 4-phenoxybenzoate]
6. O=C(CC12CC3CC(CC(C3)C1)C2)Oc1ccc([N+](=O)[O-])cc1[N+](=O)[O-]

Data returned:
1. 0.9
2. 0.9
3. 1.4
4. 1.3
5. 0.8
6. 20.0

====

# TEST TARGET: ECH1 Delta(3,5)-Delta(2,4)-dienoyl-CoA isomerase, mitochondrial (Homo sapiens, UniProt Q13011)
# Construct: isoTOP-ABPP experiments performed in cell lysates (in vitro); endogenous in cells; host or cells: soluble proteome of human cancer cell lines (MDA-MB-231, Ramos, Jurkat)
# Sequence (Q13011 34-328): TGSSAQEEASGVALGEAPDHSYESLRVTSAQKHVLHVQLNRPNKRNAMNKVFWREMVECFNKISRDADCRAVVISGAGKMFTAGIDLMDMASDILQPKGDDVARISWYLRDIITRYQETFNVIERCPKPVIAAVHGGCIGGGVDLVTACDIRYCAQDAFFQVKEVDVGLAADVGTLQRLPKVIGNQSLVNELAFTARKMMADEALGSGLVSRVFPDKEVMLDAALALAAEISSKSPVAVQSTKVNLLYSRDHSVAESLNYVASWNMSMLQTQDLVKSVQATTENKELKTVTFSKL
# PROCEDURE DETAILS: competitive isoTOP-ABPP
# Type: binding
# APPLIED CONDITIONS: 50 uM, in vitro, sol, 231
PROPERTY: isoTOP-ABPP ratio (R) at liganded lysine Q13011_K112
One number for each entry.

// sample O=C(Oc1ccc([N+](=O)[O-])cc1[N+](=O)[O-])C(c1ccccc1)(c1ccccc1)c1ccccc1 [fragment 42, 2,4-Dinitrophenyl 2,2,2-triphenylacetate] , its isoTOP-ABPP ratio (R) at liganded lysine Q13011_K112 was 1.0

// sample O=C(CCc1coc2cc(F)ccc2c1=O)Oc1ccc([N+](=O)[O-])cc1[N+](=O)[O-] [fragment 36] , its isoTOP-ABPP ratio (R) at liganded lysine Q13011_K112 was 1.3

More entries:
// sample O=C(Oc1ccc([N+](=O)[O-])cc1[N+](=O)[O-])c1ccc(Oc2ccccc2)cc1 [fragment 39, 2,4-Dinitrophenyl 4-phenoxybenzoate] , its isoTOP-ABPP ratio (R) at liganded lysine Q13011_K112 was 1.1

====

# TEST TARGET: FAM136A Protein FAM136A (Homo sapiens)
# Construct: isoTOP-ABPP experiments performed in cell lysates (in vitro); endogenous in cells; host or cells: soluble proteome of human cancer cell lines (MDA-MB-231; Ramos and Jurkat also prepared)
# PROCEDURE DETAILS: competitive isoTOP-ABPP
# Type: binding
# APPLIED CONDITIONS: 50 uM, 231 sol, in vitro
PROPERTY: isoTOP-ABPP reactivity ratio at lysine Q96C01_K99
One number for each entry.

Please review the entries below; each comes with its answer.
// sample `COc1cc(CCC(=O)Oc2ccc([N+](=O)[O-])cc2[N+](=O)[O-])cc(OC)c1OC` , its isoTOP-ABPP reactivity ratio at lysine Q96C01_K99 was 0.7

// sample `O=C(CCc1cn(-c2ccccc2)nc1-c1ccccc1)Oc1ccc([N+](=O)[O-])cc1[N+](=O)[O-]` , its isoTOP-ABPP reactivity ratio at lysine Q96C01_K99 was 0.8

// sample `Cn1cc(CC(=O)Oc2ccc([N+](=O)[O-])cc2[N+](=O)[O-])c2ccccc21` , its isoTOP-ABPP reactivity ratio at lysine Q96C01_K99 was 0.9

// sample `O=C(CCc1coc2cc(F)ccc2c1=O)Oc1c(F)c(F)c(F)c(F)c1F` , its isoTOP-ABPP reactivity ratio at lysine Q96C01_K99 was 0.9

Please examine the following record next.
// sample O=C(Oc1ccc([N+](=O)[O-])cc1[N+](=O)[O-])C(c1ccccc1)c1ccccc1 [fragment 30, 2,4-Dinitrophenyl 2,2-diphenylacetate] , its isoTOP-ABPP reactivity ratio at lysine Q96C01_K99 was 0.8
